Provenance of the data: ChEMBL document CHEMBL1155515

test: Tmax in ovariectomised female rat at 5 mg/kg, po; format: ADME, organism-based; design: dose 5 mg/kg, route oral; conditions: in vivo
reported-metric: Tmax (h)
Expressed in h, but write only the number.

Exercise: # Tmax lookup, item CNC[C@@H](O)CCN1c2ccccc2N(c2ccccc2F)S1(=O)=O
Solution: 1.63

====

test: Volume of distribution at steady state in intact female rat at 2 mg/kg, iv; assay type: ADME, organism-based; parameters: dose 2 mg/kg, route intravenous; conditions: in vivo, read-out: Vdss
reported-metric: Vd (L/kg)
Number in L/kg, nothing else.

Exercise: Which Vd value belongs to CNC[C@@H](O)CCN1c2ccccc2N(c2ccccc2F)S1(=O)=O ?
Solution: 11.3

====

test: Oral bioavailability in male rat at 10 mg/kg; assay type: ADME, organism-based; settings: in vivo
reported-metric: bioavailability (%)
I only need the number, in %, no unit after it.

Exercise: // lookup bioavailability for CNC[C@@H](O)CCN1c2ccccc2N(c2ccccc2F)S1(=O)=O
Solution: 100

====

test: Ratio of drug level from brain to plasma in ovariectomised female rat; assay type: ADME, organism-based; conditions: read-out: BPR
reported-metric: Kp

Exercise: Fill blank: measured Kp of the molecule CNC[C@@H](O)CCN1c2ccccc2N(c2ccccc2F)S1(=O)=O is ____.
Solution: 3.6

====

test: AUC (0 to infinity) in male rat at 2 mg/kg, iv; type: ADME, organism-based; design: time infinity, dose 2 mg/kg, route intravenous; conditions: plasma
reported-metric: AUC(0-inf)
Give the number first and the unit second.

Exercise: Could you share which AUC(0-inf) value was measured for CNC[C@@H](O)CCN1c2ccccc2N(c2ccccc2F)S1(=O)=O ?
Solution: 199 ng·h/mL

====

experiment: AUC (0 to infinity) in male rat at 10 mg/kg, po; assay type: ADME, organism-based; design: time infinity, dose 10 mg/kg, route oral; conditions: plasma
reported-metric: AUC(0-inf) (ng·h/mL)
Write the answer as a number in ng·h/mL, unit excluded.

Exercise: Given the compound CNC[C@@H](O)CCN1c2ccccc2N(c2ccccc2F)S1(=O)=O , what is its reported AUC(0-inf)?
Solution: 1040

====

assay: Tmax in intact female rat at 5 mg/kg, po; type: ADME, organism-based; set-up: dose 5 mg/kg, route oral; conditions: in vivo
reported-metric: Tmax (min)
Supply the numeric figure in min, leaving out any unit text.

Exercise: May I ask what Tmax has been recorded for CNC[C@@H](O)CCN1c2ccccc2N(c2ccccc2F)S1(=O)=O ?
Solution: 33.6

====

experiment: Oral bioavailability in intact female rat at 5 mg/kg; type: ADME, organism-based; conditions: in vivo
reported-metric: bioavailability (%)
Give your result in % as a bare value.

Exercise: Find the recorded bioavailability belonging to CNC[C@@H](O)CCN1c2ccccc2N(c2ccccc2F)S1(=O)=O and report it.
Solution: 41.3

====

test: Oral bioavailability in ovariectomised female rat at 5 mg/kg; assay type: ADME, organism-based; settings: in vivo
reported-metric: bioavailability (%)
Give the value in % but do not write % after it.

Exercise: I'd like to know its bioavailability. The compound in question is CNC[C@@H](O)CCN1c2ccccc2N(c2ccccc2F)S1(=O)=O
Solution: 95.2

====

test: AUC (0 to infinity) in intact female rat at 5 mg/kg, po; format: ADME, organism-based; parameters: time infinity, dose 5 mg/kg, route oral; settings: plasma
reported-metric: AUC(0-inf) (ng·h/mL)
// note: answer is a bare numeric in ng·h/mL

Exercise: Recorded AUC(0-inf) of CNC[C@@H](O)CCN1c2ccccc2N(c2ccccc2F)S1(=O)=O , please.
Solution: 959

====

assay: Tmax in male rat at 10 mg/kg, po; type: ADME, organism-based; set-up: dose 10 mg/kg, route oral; settings: in vivo
reported-metric: Tmax (h)
Provide the reading as a plain figure in h.

Exercise: // Tmax lookup, key: CNC[C@@H](O)CCN1c2ccccc2N(c2ccccc2F)S1(=O)=O
Solution: 1.38

====

assay: Cmax in intact female rat at 5 mg/kg, po; type: ADME, organism-based; set-up: dose 5 mg/kg, route oral; details: in vivo
reported-metric: Cmax (ng/mL)
Numbers only here, please. The scale is ng/mL.

Exercise: // lookup Cmax for CNC[C@@H](O)CCN1c2ccccc2N(c2ccccc2F)S1(=O)=O
Solution: 135

====

assay: Cmax in ovariectomised female rat at 5 mg/kg, po; type: ADME, organism-based; set-up: dose 5 mg/kg, route oral; conditions: in vivo
reported-metric: Cmax (ng/mL)
Give the value in ng/mL but do not write ng/mL after it.

Exercise: What Cmax value was documented for this molecule, CNC[C@@H](O)CCN1c2ccccc2N(c2ccccc2F)S1(=O)=O ?
Solution: 125

====

test: Volume of distribution at steady state in male rat at 2 mg/kg, iv; assay type: ADME, organism-based; design: dose 2 mg/kg, route intravenous; details: in vivo, read-out: Vdss
reported-metric: Vd (L/kg)
Give the value in L/kg but do not write L/kg after it.

Exercise: Please report the recorded Vd for CNC[C@@H](O)CCN1c2ccccc2N(c2ccccc2F)S1(=O)=O .
Solution: 36.3
